Measured Met Kinase % Inhibition values are reported for all entries that follow.
test system: MET; assay: MET biochemical kinase assay; set-up: species or system human; concentration or dose not given beside the values
# output: bare number, implied unit %

Solved cases below.
CC(C)(C)c1cc(C=C2C(=O)Nc3c(Br)cc(Br)cc32)cc(Cl)c1OCc1ccccc1	20.3
CNS(=O)(=O)c1ccc2c(c1)C(=Cc1cc(I)c(OCc3ccccc3)c(C(C)(C)C)c1)C(=O)N2	63.4

If you can, please state the reported Met Kinase % Inhibition value of `Cc1cc(O)cc(O)c1C=C1C(=O)Nc2ccc(CCCl)cc21` .
26.7

What value of measured Met Kinase % Inhibition is listed for `O=C1Nc2ccc(I)cc2C1=Cc1ccccc1` ?
55.1

# input compound: COC1CC(C=C2C(=O)Nc3ccc(I)cc32)C(OC)O1 (stereo not drawn) ; wanted: its Met Kinase % Inhibition
69.5

// Met Kinase % Inhibition lookup, key: `COc1cc(OC)c(OC)cc1C=C1C(=O)Nc2ccc(S(=O)(=O)Nc3ccc(C(F)(F)F)cc3)cc21`
53.3

Given the compound `Cc1cc(C)c(C=C2C(=O)Nc3ccc(Br)c(C)c32)[nH]1` , what is its reported Met Kinase % Inhibition?
24.8

I would be grateful if you could share the reported Met Kinase % Inhibition for `COc1cc(Br)cc(C=C2C(=O)Nc3ccc(Br)c(C)c32)c1O` .
85.7

Would you mind telling me what Met Kinase % Inhibition value was observed for `O=CN1CCN(c2ccc(C=C3C(=O)Nc4ccc(S(=O)(=O)Nc5ccc(C(F)(F)F)cc5)cc43)cc2)CC1` ?
45.3

----------
Listed molecules paired with reported Biochem EGFR %Inhibition
molecular target: EGFR (Homo sapiens, UniProt P00533); construct: Add 7 ug A431 cell lysate per well (EGFR source); endogenous in cells; host or cells: A431; assay: EGFR ELISA assay (in vitro kinase activity, EGFR captured from A431 cell lysate); format: biochemical; design: concentration or dose not given beside the values
Sequence (P00533 25-1210): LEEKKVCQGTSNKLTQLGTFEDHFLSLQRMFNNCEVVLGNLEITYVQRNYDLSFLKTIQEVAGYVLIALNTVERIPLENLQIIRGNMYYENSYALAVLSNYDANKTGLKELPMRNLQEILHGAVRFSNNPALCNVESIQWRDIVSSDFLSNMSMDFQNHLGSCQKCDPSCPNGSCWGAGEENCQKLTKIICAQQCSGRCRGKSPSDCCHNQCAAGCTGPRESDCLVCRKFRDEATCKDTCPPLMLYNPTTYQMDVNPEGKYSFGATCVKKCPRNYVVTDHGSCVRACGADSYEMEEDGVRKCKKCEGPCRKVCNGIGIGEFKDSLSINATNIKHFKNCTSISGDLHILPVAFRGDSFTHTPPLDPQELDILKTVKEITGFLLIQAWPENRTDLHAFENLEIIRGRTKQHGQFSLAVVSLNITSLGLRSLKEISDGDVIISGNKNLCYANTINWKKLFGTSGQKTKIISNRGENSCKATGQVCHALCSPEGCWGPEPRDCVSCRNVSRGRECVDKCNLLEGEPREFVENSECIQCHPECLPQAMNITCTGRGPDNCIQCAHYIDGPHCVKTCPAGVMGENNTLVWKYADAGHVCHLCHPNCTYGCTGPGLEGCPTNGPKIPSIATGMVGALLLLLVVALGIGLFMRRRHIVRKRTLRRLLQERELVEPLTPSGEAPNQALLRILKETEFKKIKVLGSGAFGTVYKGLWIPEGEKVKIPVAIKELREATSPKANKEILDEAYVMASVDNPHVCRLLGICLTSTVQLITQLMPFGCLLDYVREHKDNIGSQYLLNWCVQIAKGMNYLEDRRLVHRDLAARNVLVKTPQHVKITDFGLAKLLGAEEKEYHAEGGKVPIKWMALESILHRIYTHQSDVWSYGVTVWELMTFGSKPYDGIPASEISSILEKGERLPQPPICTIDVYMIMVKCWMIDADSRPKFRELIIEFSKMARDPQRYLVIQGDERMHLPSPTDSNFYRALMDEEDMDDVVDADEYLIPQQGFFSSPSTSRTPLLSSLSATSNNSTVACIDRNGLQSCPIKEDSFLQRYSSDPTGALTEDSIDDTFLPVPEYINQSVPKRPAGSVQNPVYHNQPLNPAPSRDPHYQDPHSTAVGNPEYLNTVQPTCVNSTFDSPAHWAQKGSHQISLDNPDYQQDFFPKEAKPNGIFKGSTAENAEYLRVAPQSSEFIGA
Only the number, expressed in %, is required.

Cc1cc(C=C2C(=O)Nc3c(Br)cc(Br)cc32)cc(C)c1OCc1ccccc1 [10733/A07]	28.5

Sample Cc1csc2sc(C=C3C(=O)Nc4ccc(I)cc43)c(C)c12 [10724/B11] — what was its Biochem EGFR %Inhibition?
-23.2

Please report the recorded Biochem EGFR %Inhibition for COc1ccc(C=C2C(=O)Nc3ccc(S(=O)(=O)Nc4ccc(C(F)(F)F)cc4)cc32)c(O)c1 [10723/E09] .
29.1

----------
molecular target: FLK-1 receptor (Mus musculus); construct: expressed in transfected cells; host or cells: NIH3T3 C7#3; assay: FLK-1 ELISA (kinase activity of the FLK-1 receptor in FLK-1/NIH3T3 cells, VEGF stimulated); type: cell-based
Sequence (P35918 20-1345): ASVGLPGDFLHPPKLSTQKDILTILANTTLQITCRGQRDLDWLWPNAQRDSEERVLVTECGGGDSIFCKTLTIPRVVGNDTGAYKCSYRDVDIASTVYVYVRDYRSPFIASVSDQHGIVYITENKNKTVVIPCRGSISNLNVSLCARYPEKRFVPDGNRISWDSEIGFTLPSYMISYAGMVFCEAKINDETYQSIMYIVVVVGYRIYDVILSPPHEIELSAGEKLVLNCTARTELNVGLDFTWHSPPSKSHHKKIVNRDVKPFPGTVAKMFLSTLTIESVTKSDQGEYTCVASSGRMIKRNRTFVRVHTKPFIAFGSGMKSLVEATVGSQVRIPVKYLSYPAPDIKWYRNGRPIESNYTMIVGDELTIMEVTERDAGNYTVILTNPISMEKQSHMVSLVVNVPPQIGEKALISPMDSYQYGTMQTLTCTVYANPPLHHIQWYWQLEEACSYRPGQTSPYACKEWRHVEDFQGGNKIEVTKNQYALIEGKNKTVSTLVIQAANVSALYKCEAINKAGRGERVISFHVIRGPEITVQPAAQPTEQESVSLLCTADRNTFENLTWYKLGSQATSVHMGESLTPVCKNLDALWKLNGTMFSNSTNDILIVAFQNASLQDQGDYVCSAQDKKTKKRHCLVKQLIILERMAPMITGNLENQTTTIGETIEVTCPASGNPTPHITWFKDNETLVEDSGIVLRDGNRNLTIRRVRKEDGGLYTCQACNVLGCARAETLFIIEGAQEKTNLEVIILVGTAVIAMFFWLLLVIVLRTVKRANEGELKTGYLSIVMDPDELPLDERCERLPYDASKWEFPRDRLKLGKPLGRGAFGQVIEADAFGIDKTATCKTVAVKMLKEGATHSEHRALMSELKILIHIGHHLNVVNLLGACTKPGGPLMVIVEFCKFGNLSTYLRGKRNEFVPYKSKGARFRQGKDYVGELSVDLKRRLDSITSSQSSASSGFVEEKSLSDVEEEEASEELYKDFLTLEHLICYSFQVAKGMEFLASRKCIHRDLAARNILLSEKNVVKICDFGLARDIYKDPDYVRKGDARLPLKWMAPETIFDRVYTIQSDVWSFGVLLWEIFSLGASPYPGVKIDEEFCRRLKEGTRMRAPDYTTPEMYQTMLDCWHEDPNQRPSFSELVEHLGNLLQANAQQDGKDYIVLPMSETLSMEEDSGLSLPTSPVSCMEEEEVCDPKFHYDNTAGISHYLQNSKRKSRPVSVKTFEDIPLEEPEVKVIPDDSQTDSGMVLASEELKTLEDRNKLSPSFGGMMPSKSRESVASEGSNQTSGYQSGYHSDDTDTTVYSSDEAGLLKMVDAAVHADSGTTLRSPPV
measured.attribute: Fik Kinase %Inhibition (%)
State just the number; it will be interpreted in %.

Cc1ccc(C=C2C(=O)Nc3ccc(Br)c(C)c32)s1	1.6
COc1ccc(C=C2C(=O)Nc3c(Br)cc(Br)cc32)cc1OC	12.3
O=C1Nc2ccc(CCCl)cc2C1=Cc1ccc(F)cc1	5.3
O=C1Nc2ccc(I)cc2C1=Cc1coc2c(Br)cc(Br)cc2c1=O	9.4

Form field - read-out: Fik Kinase %Inhibition; system: FLK-1 receptor (Mus musculus); submitted item: `CNS(=O)(=O)c1ccc2c(c1)C(=Cc1cn(C)cc1C)C(=O)N2`
16.3

----------
test system: MET; assay: MET biochemical kinase assay; parameters: species or system human; concentration or dose not given beside the values
Please respond with Condition met when measured Met Kinase % Inhibition is strictly beneath 40%, and with Condition not met in all other cases.

Recorded results for 5 compounds are shown here.
CNS(=O)(=O)c1ccc2c(c1)C(=Cc1coc3c(Br)cc(Br)cc3c1=O)C(=O)N2	Condition not met
O=C1Nc2ccc(S(=O)(=O)N3CCOCC3)cc2C1=Cc1ccc(O)cc1	Condition met
COc1c([N+](=O)[O-])cc(C=C2C(=O)Nc3ccc(CCCl)cc32)cc1C(C)(C)C	Condition met
CNS(=O)(=O)c1ccc2c(c1)C(=Cc1c(O)cccc1OC)C(=O)N2	Condition met
COc1ccc(O)c(C=C2C(=O)Nc3c(Br)cc(Br)cc32)c1	Condition not met

Lab log: compare recorded Met Kinase % Inhibition with 40%; is it strictly lower for `COc1cc(O)ccc1C=C1C(=O)Nc2ccc(S(=O)(=O)Nc3ccc(C(F)(F)F)cc3)cc21` ?
Condition not met

State whether 40% exceeds Met Kinase % Inhibition recorded for `COc1cc(OC)c(C=C2C(=O)Nc3ccc(CCCl)cc32)c(OC)c1` .
Condition met

In plain terms, does `CNS(=O)(=O)c1ccc2c(c1)C(=Cc1ccc(OC)cc1)C(=O)N2` come in under 40% for Met Kinase % Inhibition?
Condition met

----------
biological target: PDGF-R (Homo sapiens); assay: PDGF-R ELISA; assay type: cell-based
Sequence (P09619 33-1106, species assumed): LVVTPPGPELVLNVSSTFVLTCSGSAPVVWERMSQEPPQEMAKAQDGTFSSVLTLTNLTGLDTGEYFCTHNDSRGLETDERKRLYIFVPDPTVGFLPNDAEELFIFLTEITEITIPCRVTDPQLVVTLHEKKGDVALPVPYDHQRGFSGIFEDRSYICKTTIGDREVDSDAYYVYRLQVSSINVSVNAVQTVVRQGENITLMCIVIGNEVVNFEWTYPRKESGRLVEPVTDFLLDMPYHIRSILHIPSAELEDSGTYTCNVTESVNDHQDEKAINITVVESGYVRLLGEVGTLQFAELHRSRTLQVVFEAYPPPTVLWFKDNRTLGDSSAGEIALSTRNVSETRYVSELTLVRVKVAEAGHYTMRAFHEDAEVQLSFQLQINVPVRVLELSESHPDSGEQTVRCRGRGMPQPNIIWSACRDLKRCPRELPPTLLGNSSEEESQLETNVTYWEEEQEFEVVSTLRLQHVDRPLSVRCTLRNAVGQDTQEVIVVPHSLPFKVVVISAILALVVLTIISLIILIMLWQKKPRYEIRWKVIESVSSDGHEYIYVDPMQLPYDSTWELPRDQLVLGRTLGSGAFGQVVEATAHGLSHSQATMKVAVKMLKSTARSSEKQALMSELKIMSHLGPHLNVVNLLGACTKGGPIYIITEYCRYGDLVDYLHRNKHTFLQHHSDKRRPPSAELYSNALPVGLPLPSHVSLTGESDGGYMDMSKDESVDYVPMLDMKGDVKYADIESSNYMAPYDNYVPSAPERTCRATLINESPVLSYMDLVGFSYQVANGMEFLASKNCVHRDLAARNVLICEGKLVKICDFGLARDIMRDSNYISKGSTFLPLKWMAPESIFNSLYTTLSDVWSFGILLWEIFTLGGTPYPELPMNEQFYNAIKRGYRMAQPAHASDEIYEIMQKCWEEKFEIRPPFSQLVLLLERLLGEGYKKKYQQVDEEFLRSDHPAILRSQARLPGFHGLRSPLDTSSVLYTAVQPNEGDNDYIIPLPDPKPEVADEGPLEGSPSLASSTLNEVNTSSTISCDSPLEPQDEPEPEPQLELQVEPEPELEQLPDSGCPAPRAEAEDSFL
Listed molecules paired with reported PDGF Kinase %Inhibition
Numbers only; they are read as %.

Worked examples, 2 molecules total:
CC(=O)n1cc(C=C2C(=O)Nc3ccc(CCCl)cc32)c2ccccc21	65.0
CC(C)(C)c1cc(C=C2C(=O)Nc3ccc(CCCl)cc32)cc([N+](=O)[O-])c1O	14.6

What does the data say about its PDGF Kinase %Inhibition? Entry: `Cc1cc(C=C2C(=O)Nc3ccc(S(=O)(=O)Nc4ccc(C(F)(F)F)cc4)cc32)oc1C`
31.7

Given `Cc1cc(C=C2C(=O)Nc3ccc(I)cc32)oc1C` , state its recorded PDGF Kinase %Inhibition.
-13.9

Reported PDGF Kinase %Inhibition, molecule `COc1cc(C=C2C(=O)Nc3ccc(Br)c(C)c32)cc(OC)c1OC` : ____
15.5

Value lookup for PDGF Kinase %Inhibition; key = `O=CN1CCN(c2ccc(C=C3C(=O)Nc4ccc(S(=O)(=O)Nc5ccc(C(F)(F)F)cc5)cc43)cc2)CC1`
28.9

Name the reported PDGF Kinase %Inhibition value associated with the molecule `CNS(=O)(=O)c1ccc2c(c1)C(=Cc1cc(Br)c(OCc3ccccc3)c(C(C)(C)C)c1)C(=O)N2`
30.5

Would you kindly share the measured PDGF Kinase %Inhibition for `CCOc1cccc(C=C2C(=O)Nc3ccc(S(=O)(=O)NC)cc32)c1O` ?
6.4

Quick one: PDGF Kinase %Inhibition for `COc1c([N+](=O)[O-])cc(C=C2C(=O)Nc3ccc(I)cc32)cc1C(C)(C)C` ?
35.8

Look up PDGF Kinase %Inhibition for this molecule: `CNS(=O)(=O)c1ccc2c(c1)C(=Cc1c(OC)cccc1OC)C(=O)N2`
32.0

----------
test system: MET; test: MET biochemical kinase assay; set-up: species or system human; concentration or dose not given beside the values
Met Kinase % Inhibition of 70% or higher: yes (1). Under 70%: no (0).

Use these answered entries as a reference point.
CCOC(=O)CCc1c(C(=O)OCC)[nH]c(C=C2C(=O)Nc3ccc(CCCl)cc32)c1CC(=O)OCC	no (0)
O=C1Nc2ccc(S(=O)(=O)N3CCOCC3)cc2C1=Cc1ccc(O)c(O)c1	yes (1)
O=C1Nc2ccc(I)cc2C1=Cc1ccc(F)cc1Cl	no (0)
Cc1c(Br)ccc2c1C(=Cc1cc(O)c3c(c1O)CCCC3)C(=O)N2	yes (1)
CC(C)c1cc(C=C2C(=O)Nc3ccc(CCCl)cc32)cc(C(C)C)c1Oc1ccccc1	no (0)

Does the reported Met Kinase % Inhibition for `O=C1Nc2ccc(S(=O)(=O)Nc3ccc(C(F)(F)F)cc3)cc2C1=Cc1cc([N+](=O)[O-])ccc1O` fall at or above the 70% mark?
no (0)

Could you verify whether the entry `CN1C(=O)C(=C2C(=O)Nc3ccc(I)cc32)c2ccccc21` shows Met Kinase % Inhibition of no less than 70%?
yes (1)

Check if Met Kinase % Inhibition >= 70% (inclusive). Item: `CNS(=O)(=O)c1ccc2c(c1)C(=Cc1ccc(Br)o1)C(=O)N2`
no (0)

Reported Met Kinase % Inhibition at or above 70%? `CCOc1cccc(C=C2C(=O)Nc3ccc(S(=O)(=O)N4CCOCC4)cc32)c1O`
no (0)

Does `Cc1c(Br)ccc2c1C(=Cc1ccc(Br)s1)C(=O)N2` have a reported Met Kinase % Inhibition of at least 70%?
no (0)

Item `COc1c(C(C)C)cc(C=C2C(=O)Nc3c(Br)cc(Br)cc32)cc1C(C)C` with Met Kinase % Inhibition of 70% or above?
no (0)

----------
molecular target: EGFR (Homo sapiens, UniProt P00533); construct: Add 7 ug A431 cell lysate per well (EGFR source); endogenous in cells; host or cells: A431; assay: EGFR ELISA assay (in vitro kinase activity, EGFR captured from A431 cell lysate); format: biochemical; set-up: concentration or dose not given beside the values
Recorded Biochem EGFR %Inhibition for the following compounds
Number only, in %; omit the unit.

CSc1ccc(C=C2C(=O)Nc3c(Br)cc(Br)cc32)cc1	58.8
O=C1Nc2ccc(S(=O)(=O)N3CCOCC3)cc2C1=Cc1cc([N+](=O)[O-])ccc1O	21.9
O=C1Nc2ccc(CCCl)cc2C1=Cc1cc([N+](=O)[O-])cc(CCl)c1O	23.2
CNS(=O)(=O)c1ccc2c(c1)C(=Cc1ccc3c(c1)Cc1ccccc1-3)C(=O)N2	5.8
O=C1Nc2c(Br)cc(Br)cc2C1=CC1C=CCCC1 (centres unmarked)	15.5
C=C(C)C1CC=C(C=C2C(=O)Nc3ccc(S(=O)(=O)N4CCOCC4)cc32)CC1 (centres unmarked)	5.0
O=C1Nc2c(Br)cc(Br)cc2C1=Cc1cc2c([nH]1)CCCC2	41.4
O=C1Nc2ccc(CCCl)cc2C1=Cc1ccncc1	20.8

Name the reported Biochem EGFR %Inhibition value associated with the compound `CCOC(=O)c1cc(C=C2C(=O)Nc3ccc(Br)c(C)c32)oc1C`
5.6

Item under review: `COc1cc(O)ccc1C=C1C(=O)Nc2ccc(CCCl)cc21` . Reported Biochem EGFR %Inhibition?
10.0

Fill in the blank: the reported Biochem EGFR %Inhibition of `O=C1Nc2ccc(CCCl)cc2C1=Cc1cccc(F)c1O` is ____.
33.7

Given the entry `Cc1c(Br)ccc2c1C(=Cc1ccncc1)C(=O)N2` , report its measured Biochem EGFR %Inhibition.
33.2

I have this compound here, `Cc1c(Br)ccc2c1C(=Cc1ccccc1OCC(=O)O)C(=O)N2` , and I need its recorded Biochem EGFR %Inhibition.
4.4

Dear colleague, I am looking for the recorded Biochem EGFR %Inhibition of the following compound: `CC(C)(C)c1cc(C=C2C(=O)Nc3ccc(S(=O)(=O)Nc4ccc(C(F)(F)F)cc4)cc32)ccc1OCc1ccccc1`
-11.0
